These entries and their values trace back to patent US20090069408A1.

Where a name gives a salt, the structure may show the parent alone.
quantity: melting point

Use the examples below as a reference point.
N=C(N)SCc1cccc2c1sc1c(CSC(=N)N)cc(F)cc12 (as salt: hydrobromid) [Example 1.10, dihydrobromide]	> 230 °C
N=C(N)SCc1cccc2c1-c1c(cccc1CSC(=N)N)CSC2 (as salt: hydrobromid) [Example 1.19, dihydrobromide]	155 to 158 °C
N=C(N)SCc1cccc2c(=O)c3cccc(CSC(=N)N)c3oc12 (as salt: hydrobromid) [Example 1.16, dihydrobromide]	> 230 °C
N=C(N)SCc1cccc2c1-c1c(CSC(=N)N)cccc1C2=O (as salt: hydrobromid) [Example 1.15, dihydrobromide]	218 to 220 °C
N=C(N)SCc1cccc2c1oc1c(CSC(=N)N)cc(F)cc12 (as salt: hydrobromid) [Example 1.6, dihydrobromide]	> 220 °C

Please look up its melting point: N=C(N)SCc1cccc2cc3cccc(CSC(=N)N)c3cc12 (as salt: hydrobromid) [Example 1.9, dihydrobromide] > 250 °C

Fill blank: measured melting point of the compound Cc1ccc2c(oc3c(CSC(=N)N)c(C)ccc32)c1CSC(=N)N (as salt: hydrobromid) [Example 1.3, dihydrobromide] is ____. > 220 °C

Need melting point, item N=C(N)SCc1cccc2sc3cccc(CSC(=N)N)c3c12 (as salt: hydrobromid) [Example 1.14, dihydrobromide] 228 to 230 °C
